These data points were gathered from PubChem BioAssay (NCI).

- Test system: SNB-75 CNS
- assay_details: NCI tumour cell line growth inhibition, 48 h

{"compound": "N#Cc1c(N)nc(N2CCOCC2)c(C#N)c1-c1c(Cl)cccc1Cl", "GI50": "1750 nM"}
{"compound": "CCN1C(=O)N(CC)C2C1N=C(SC)N2/N=C/C=C/c1ccccc1OC (stereo not drawn)", "GI50": "363 nM"}
{"compound": "CC(C)(C)[Si](C)(C)OC1[C@@H](COC(=O)NC(=O)CCl)O[C@@H](n2cnc3c(N)ncnc32)[C@H]1O[Si](C)(C)C(C)(C)C (stereo partly drawn)", "GI50": "3640 nM"}

====

- Tested on: SW-620 colon
- assay_details: NCI tumour cell line growth inhibition, 48 h
Measured TGI of individual entries

{"compound": "CCCN(CCC)C(=O)c1c(N2CCN(C)CC2)c2cccnc2n2c(C)cnc12", "TGI": "45.5 µM"}
{"compound": "O=C1[C@@H]2C(c3ccccc3[N+](=O)[O-])=NO[C@@H]2C(=O)N1c1ccc(Cc2ccc(N3C(=O)[C@H]4C(c5ccccc5[N+](=O)[O-])=NO[C@H]4C3=O)cc2)cc1", "TGI": "> 100 µM"}
{"compound": "COC(=O)c1ccccc1C1CN=NC12Cc1ccc3c(c1C2=O)CCC3 (stereo not drawn)", "TGI": "> 100 µM"}

====

- Test system: XF 498 CNS
- assay_details: NCI tumour cell line growth inhibition, 48 h
Measured TGI of individual entries

{"compound": "NC(=O)c1ncn(C2OC(CO)C(O)C2O)c1O (stereo unspecified)", "TGI": "> 100 µM"}
{"compound": "O=C1Nc2ccc(Cl)c(I)c2C1=O", "TGI": "34.2 µM"}
{"compound": "CC(=O)OCC1OC(n2c(=S)n(-c3ccccc3)c(=O)c3cc(Br)ccc32)C(OC(C)=O)C1OC(C)=O (stereo unspecified)", "TGI": "> 100 µM"}
{"compound": "CC12CCc3ccccc3C1=NNC(=O)C2 (stereo unspecified)", "TGI": "> 100 µM"}
{"compound": "CSc1nnc(C(C#N)C#N)nn1", "TGI": "> 100 µM"}
{"compound": "CN(C)N=Nc1ccc(S(N)(=O)=O)cc1", "TGI": "> 100 µM"}

====

- Tested on: CAKI-1 renal
- assay_details: NCI tumour cell line growth inhibition, 48 h

{"compound": "CSc1nc2c(c(=O)n1C)C(c1ccccc1)C1=C(N2)/C(=C/c2ccccc2)CCC1 (stereo not given)", "TGI": "> 100 µM"}
{"compound": "COc1ccc(/C=C/c2ccnc3ccccc23)cc1OC", "TGI": "29.3 µM"}
{"compound": "O=C1C(=C([O-])c2ccccc2)C(=O)c2ccccc21.O=C1C(=C([O-])c2ccccc2)C(=O)c2ccccc21.[Ni+2]", "TGI": "> 100 µM"}
{"compound": "N=C(CC(=O)Nc1ccccn1)c1ccccc1", "TGI": "> 100 µM"}
{"compound": "COc1ccc(N2C(=O)/C(=C/c3ccc(N(CCC#N)CCC#N)cc3)N=C2c2ccccc2)cc1", "TGI": "> 100 µM"}

====

Measured GI50 of individual entries
- Tested on: NCI-H522 lung
- assay_details: NCI tumour cell line growth inhibition, 48 h
measured_parameter: GI50

{"compound": "COc1ccc(-c2c(-c3ccc(C#N)c(F)c3)nc(N3CCC(N)CC3)n(C)c2=O)cc1F", "test_system": "NCI-H522 lung", "measured_parameter": "GI50", "observed_measurement": "13.6 µM"}
{"compound": "CN1CCN(c2ccc(NC3=CC(=O)c4ncncc4C3=O)cc2)CC1", "test_system": "NCI-H522 lung", "measured_parameter": "GI50", "observed_measurement": "0.597 µM"}
{"compound": "CC(=O)c1c(C)c2cnc(Nc3ccc(N4CCNCC4)cn3)nc2n(C2CCCC2)c1=O", "test_system": "NCI-H522 lung", "measured_parameter": "GI50", "observed_measurement": "13 µM"}
{"compound": "O=C(CI)Nc1ccc(Br)cc1", "test_system": "NCI-H522 lung", "measured_parameter": "GI50", "observed_measurement": "1.53 µM"}
{"compound": "COc1cc(C(=O)n2nc(N)c3c(C)cc(C)nc32)cc(OC)c1OC", "test_system": "NCI-H522 lung", "measured_parameter": "GI50", "observed_measurement": "10.8 µM"}
{"compound": "Oc1[nH]c2ccccc2c1C=Nc1ccc(-n2cncn2)cc1", "test_system": "NCI-H522 lung", "measured_parameter": "GI50", "observed_measurement": "10.7 µM"}
{"compound": "FC(F)(F)c1cccc(-c2[nH]ncc2-c2nnnn2-c2ccccc2)c1", "test_system": "NCI-H522 lung", "measured_parameter": "GI50", "observed_measurement": "4.58 µM"}
{"compound": "CSc1ccc(C(=O)/C=C/c2ccc(Cl)cc2Cl)cc1", "test_system": "NCI-H522 lung", "measured_parameter": "GI50", "observed_measurement": "14.4 µM"}
{"compound": "COc1cc(C2NC(=O)C(C#N)=C(Nc3cccc(C)c3)S2)ccc1O (stereo not given)", "test_system": "NCI-H522 lung", "measured_parameter": "GI50", "observed_measurement": "> 100 µM"}
{"compound": "O=C1/C(=C/c2ccc([N+](=O)[O-])o2)Oc2ccc(Cl)cc21", "test_system": "NCI-H522 lung", "measured_parameter": "GI50", "observed_measurement": "1.31 µM"}
